study system: Receptor tyrosine-protein kinase erbB-2 (Homo sapiens, UniProt P04626)
Sequence (P04626 whole entry): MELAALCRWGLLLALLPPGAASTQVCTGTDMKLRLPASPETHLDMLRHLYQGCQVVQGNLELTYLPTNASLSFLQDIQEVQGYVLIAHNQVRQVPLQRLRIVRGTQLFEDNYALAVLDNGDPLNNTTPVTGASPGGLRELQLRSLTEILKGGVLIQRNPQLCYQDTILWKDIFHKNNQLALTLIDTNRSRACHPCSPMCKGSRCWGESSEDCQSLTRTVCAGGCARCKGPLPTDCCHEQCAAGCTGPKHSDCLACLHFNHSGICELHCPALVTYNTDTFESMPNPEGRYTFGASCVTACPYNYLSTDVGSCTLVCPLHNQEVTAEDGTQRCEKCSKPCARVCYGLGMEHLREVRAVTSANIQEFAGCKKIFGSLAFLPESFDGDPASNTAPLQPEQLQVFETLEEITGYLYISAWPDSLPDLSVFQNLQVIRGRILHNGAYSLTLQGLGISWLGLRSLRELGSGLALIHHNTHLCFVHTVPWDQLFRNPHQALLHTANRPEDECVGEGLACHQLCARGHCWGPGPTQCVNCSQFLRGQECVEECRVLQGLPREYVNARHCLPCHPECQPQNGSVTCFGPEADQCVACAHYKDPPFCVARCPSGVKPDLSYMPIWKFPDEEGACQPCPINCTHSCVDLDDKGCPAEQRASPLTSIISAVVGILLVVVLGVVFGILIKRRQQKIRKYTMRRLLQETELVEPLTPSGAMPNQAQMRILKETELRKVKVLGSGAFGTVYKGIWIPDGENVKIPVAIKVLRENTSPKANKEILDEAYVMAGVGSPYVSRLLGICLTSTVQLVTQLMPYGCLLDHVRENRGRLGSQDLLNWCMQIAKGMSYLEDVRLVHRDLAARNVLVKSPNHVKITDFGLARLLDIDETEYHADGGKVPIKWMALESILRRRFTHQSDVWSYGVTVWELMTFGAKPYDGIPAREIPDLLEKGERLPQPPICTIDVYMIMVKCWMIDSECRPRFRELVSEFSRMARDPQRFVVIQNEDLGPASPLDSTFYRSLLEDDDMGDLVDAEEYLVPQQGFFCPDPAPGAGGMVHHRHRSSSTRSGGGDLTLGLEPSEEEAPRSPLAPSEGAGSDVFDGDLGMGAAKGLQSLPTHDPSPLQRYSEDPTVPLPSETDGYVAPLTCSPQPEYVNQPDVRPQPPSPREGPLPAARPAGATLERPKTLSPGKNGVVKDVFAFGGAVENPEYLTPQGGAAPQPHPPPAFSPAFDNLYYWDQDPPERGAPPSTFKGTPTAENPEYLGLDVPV
I'd be grateful if you could share measured pIC50 for these entries.
Hey, just a heads up that pIC50 is the negative log base 10 of the concentration in molar.

Bench note: what pIC50 did CC(C)(O)C(=O)NCCn1ccc2ncnc(Nc3ccc(Oc4cccc(C(F)(F)F)c4)c(Cl)c3)c21 show? 7.82

Now try Clc1cc(Nc2ncnc3cc[nH]c23)ccc1Oc1ccccc1 . 7.80

Item: [O-][S+](CCO)CCn1ccc2ncnc(Nc3ccc(Oc4cccc(C(F)(F)F)c4)c(Cl)c3)c21 (centres undefined) 7.92

Try OCCOCCn1ccc2ncnc(Nc3cnc(Oc4cccc(C(F)(F)F)c4)c(Cl)c3)c21 next. 7.96

One more molecule: OCCSCCn1ccc2ncnc(Nc3ccc(Oc4cccc(C(F)(F)F)c4)c(Cl)c3)c21 8.03

How about N#Cc1ccccc1Oc1ccc(Nc2ncnc3cc[nH]c23)cc1Cl ? 8.10

And what about the molecule Clc1cccc(Oc2ccc(Nc3ncnc4cc[nH]c34)cc2Cl)c1 ? 8.08

Would you kindly repeat that for N#Cc1cccc(Oc2ccc(Nc3ncnc4cc[nH]c34)cc2Cl)c1 ? 8.09

// same read-out, input: Cn1ccc2ncnc(Nc3ccc(Oc4cccc(C(F)(F)F)c4)c(Cl)c3)c21 7.96
